Give measured GI50 for each item. Keep answers brief.
system: 786-0; experiment: NCI tumour cell line growth inhibition, 48 h
Calls of active or inactive are those of the source. No stated cut-off is given here; in the data, active = GI50 up to about 1.1 µM and inactive = higher.

INPUT: # return recorded GI50 for entry Clc1ccc(Cc2nc3ccccc3o2)cc1
OUTPUT: 96.4 µM (inactive)

INPUT: # return recorded GI50 for entry COc1ccc(/C=C2\CCCc3ccccc3C2=O)cc1
OUTPUT: 0.0561 µM (active)

INPUT: # return recorded GI50 for entry O=C1CC=C2C3CC4N(CCC45c4ccccc4N1C25)C/C3=C\CO (stereo unspecified)
OUTPUT: > 100 µM (inactive)

INPUT: # return recorded GI50 for entry O=c1c2nc[nH]c2n(-c2ccccc2)c(=S)n1-c1ccccc1
OUTPUT: > 100 µM (inactive)

Please look at the items below and tell me GI50 for each one, in order.
1. Cc1ccc(-c2cc(=O)c3cc(C)c(C)c(C(=O)O)c3o2)cc1
2. C[C@H](CC[C@@H](O)C(C)(C)O)[C@H]1CC[C@@]2(C)[C@@H]3CC=C4[C@@H](CC[C@H](OC5OC(CO)C(O)C(O)C5O)C4(C)C)[C@]3(C)C(=O)C[C@]12C (stereo partly specified)
3. CN1CC2=C(OC(N)=C(C#N)C2c2cccs2)/C(=C/c2cccs2)C1 (stereo unspecified)
4. COC(=O)/C=C\C(C#N)(C#N)/N=C/c1cccs1
5. COc1cc(CNCc2cc(OC)c(OC)c(OC)c2)cc(OC)c1OC
6. COc1ccc2nc3cccc([N+](=O)[O-])c3c(NCCC(=O)O)c2c1
7. Cn1c(=O)nc2n(CCO)ccnc-2c1=O

OUTPUT:
1: > 100 µM (inactive); 2: 26.6 µM (inactive); 3: 31.3 µM (inactive); 4: 14.2 µM (inactive); 5: > 10 µM (inactive); 6: > 10 µM (inactive); 7: > 100 µM (inactive)

* * *

test system: NCI-H23; assay: NCI tumour cell line growth inhibition, 48 h
Active and inactive are the calls of the source. Cut-off read from the data, not from the text of the source: active = GI50 up to about 1.1 µM and inactive = higher.
measuredParameter: GI50

The cases that follow already have their GI50 on record.
INPUT: # return recorded GI50 for entry C=CC/N=C1\NC(=O)C(CC(=O)Nc2ccc(C)cc2)S1 (stereo unspecified)
OUTPUT: > 100 µM (inactive)

INPUT: # return recorded GI50 for entry CN1CCN(Cn2nc(-c3ccccc3)n(/N=C/c3ccc(-c4ccc(Cl)cc4Cl)o3)c2=S)CC1
OUTPUT: 18.7 µM (inactive)

INPUT: # return recorded GI50 for entry O=C(O)C(O)c1ccc(F)cc1 (stereo unspecified)
OUTPUT: > 100 µM (inactive)

INPUT: # return recorded GI50 for entry NCCCOc1ccc([N+](=O)[O-])cc1Cl
OUTPUT: > 100 µM (inactive)

INPUT: # return recorded GI50 for entry CCOc1ccc(/C=C2/C(=O)N=C(N)N=C2N)cc1OCC
OUTPUT: > 100 µM (inactive)

Others:
INPUT: # return recorded GI50 for entry O=c1ssc2ncccc12
OUTPUT: 28.8 µM (inactive)

* * *

tested on: SNB-75; experiment: NCI tumour cell line growth inhibition, 48 h
Calls of active or inactive are those of the source. Cut-off read from the data, not from the text of the source: active = GI50 up to about 1.1 µM and inactive = higher.
measuredParameter: GI50

Please look at the items below and tell me GI50 for each one, in order.
1. Cc1cc2cc3c(C)cc(=O)oc3c(C)c2o1
2. NC(=S)N1N=C2CCCCCC[C@@H]2[C@H]1c1ccccc1
3. Cc1ccc(-c2cc(=O)c3cc(C)c(C)c(C(=O)O)c3o2)cc1
4. CC12C=CC(=O)C=C1CCC1C3CCC(O)(C(=O)CO)C3(C)CC(O)C12F (stereo not given)
5. O=C1[C@H](O)[C@@H]2C(O)O[C@H]3[C@@H]2N1C[C@H]3[Si](c1ccccc1)(c1ccccc1)c1ccccc1 (stereo not given in full)

OUTPUT:
["> 100 µM (inactive)", "75.2 µM (inactive)", "47.9 µM (inactive)", "> 100 µM (inactive)", "5.94 µM (inactive)"]

* * *

Give measured GI50 for each item. Keep answers brief.
test system: MOLT-4; test: NCI tumour cell line growth inhibition, 48 h
Calls of active or inactive are those of the source. Rule as the data show it: active = GI50 up to about 1.1 µM and inactive = higher.

INPUT: # return recorded GI50 for entry COC(=O)C1Cc2c(C)cccc2C1=O (stereo unspecified)
OUTPUT: > 100 µM (inactive)

INPUT: # return recorded GI50 for entry Fc1cccc(F)c1C1SCc2nc3cc(Cl)c(Cl)cc3n21 (stereo unspecified)
OUTPUT: > 100 µM (inactive)

INPUT: # return recorded GI50 for entry Cc1cc(Cl)ccc1NC(=O)C1C(=O)N(c2ccc(Cl)cc2C)C(=O)/C1=N\NC(N)=S (stereo unspecified)
OUTPUT: 19.2 µM (inactive)

INPUT: # return recorded GI50 for entry C=CC(C)C1(CCCOCc2ccccc2)C(=S)N2CCC3(CC24CCCC14)OCCO3 (stereo unspecified)
OUTPUT: 3.93 µM (inactive)

INPUT: # return recorded GI50 for entry CCC(=O)CC(=O)CCC(=O)Nc1cc(C)ccc1C
OUTPUT: > 100 µM (inactive)

// moving on: another record for GI50
INPUT: # return recorded GI50 for entry CSc1n[nH]c2[nH]nc(C)c12
OUTPUT: 8.53 µM (inactive)

* * *

system: SNB-78; assay: NCI tumour cell line growth inhibition, 48 h
Activity calls are given as the source filed them. Rule as the data show it: active = GI50 up to about 1.1 µM and inactive = higher.
Give measured GI50 for each item. Keep answers brief.

The cases that follow already have their GI50 on record.
INPUT: # return recorded GI50 for entry O=C1C(Cl)=C(NCCOCCO)C(=O)c2c(O)ccc(O)c21
OUTPUT: 12.7 µM (inactive)

INPUT: # return recorded GI50 for entry COC(=O)C(C/C=C(\C)c1ccc(Cl)cc1)C(C)=O (centres undefined)
OUTPUT: > 56.8 µM (inactive)

INPUT: # return recorded GI50 for entry COc1cc(/C=N/N=C(\N)NO)ccc1O
OUTPUT: > 100 µM (inactive)

INPUT: # return recorded GI50 for entry COc1cc(C(=O)C/C(CCC(=O)Nc2ccc(Cl)cc2Cl)=N/Nc2nnc(C)n2N)ccc1O
OUTPUT: > 100 µM (inactive)

INPUT: # return recorded GI50 for entry CC(C)=CC1(C)/C(=N\O)C(C)(CC(C)C)C(=O)N1O (centres undefined)
OUTPUT: > 100 µM (inactive)

Please look at the items below and tell me GI50 for each one, in order.
1. CC1C(c2ccccc2)N(C)C(c2ccccc2)C(C)C1(O)c1ccccc1 (centres undefined)
2. CCc1ccc(Nc2ccc([N+](=O)[O-])cc2[N+](=O)[O-])cc1
3. N#CC1CCCCCCCCCCC(=O)N(CCCl)C1=O (centres undefined)
4. CC1(Cl)CCC2(CC(Br)=CC3OC32C)CC1Br (centres undefined)

OUTPUT:
> 100 µM (inactive)
87.3 µM (inactive)
> 100 µM (inactive)
12.4 µM (inactive)

* * *

system: K562; assay: NCI tumour cell line growth inhibition, 48 h
The source made the active and inactive calls. Rule as the data show it: active = GI50 up to about 1.1 µM and inactive = higher. Peptide text beside a SMILES is read from it. * marks the point of attachment. Boc = CC(C)(C)OC(=O)*
measuredParameter: GI50

INPUT: Provide measured GI50 on K562 for CCCCCOP(=O)(OCCCCC)C(NC(C)=O)(C(=O)OCC)C(F)(F)F (centres undefined) please.
OUTPUT: > 100 µM (inactive)

INPUT: Provide measured GI50 on K562 for C#CCOC(=O)C(N)CC(N)=O (centres undefined) please.
OUTPUT: 21.2 µM (inactive)

INPUT: Provide measured GI50 on K562 for Nc1cnc(Nc2cccc3ccccc23)o1 please.
OUTPUT: > 10 µM (inactive)

INPUT: Provide measured GI50 on K562 for O=C1Nc2c(ccc(Cl)c2I)C1=O please.
OUTPUT: 23.8 µM (inactive)

INPUT: Provide measured GI50 on K562 for CC(=O)NC1=C(N)C(=O)c2ccccc2C1=O please.
OUTPUT: 57.5 µM (inactive)

INPUT: Provide measured GI50 on K562 for CCN(CC)c1ccc(C2NC(=O)c3ccccc3N2)cc1 (centres undefined) please.
OUTPUT: 1.27 µM (inactive)

INPUT: Provide measured GI50 on K562 for O=C1C[C@H](Sc2ccccc2)C2(OCCO2)[C@@H](Sc2ccccc2)C1 please.
OUTPUT: 0.351 µM (active)

INPUT: Provide measured GI50 on K562 for CCCCCC(O)[C@H]1C(=O)C[C@@H](O[Si](C)(C)C(C)(C)C)[C@@H]1/C=C/CCOCc1ccccc1 (some centres undefined) please.
OUTPUT: > 36.5 µM (inactive)

Please look at the items below and tell me GI50 for each one, in order.
1. NC(=S)N1N=C2CCCCCC[C@@H]2[C@H]1c1ccccc1
2. CCOC(=O)/C(=C/c1cccc(C#N)c1)N(CC)CC
3. c1ccc2c(c1)CCCC/C2=N/OCC1CO1 (centres undefined)
4. CCOc1ccc(/C=C2/C(=O)N=C(N)N=C2N)cc1OCC
5. CC(NC(=O)OC(C)(C)C)C(=O)NC(Cc1ccccc1)C(=O)NCC(=O)O (stereo not drawn) (Boc-Ala-Phe-Gly-OH; configuration not given here)
6. CC1=NN(C(=O)c2ccccc2O)C(=O)/C1=C/c1cccc(O)c1

OUTPUT:
32.8 µM (inactive)
> 100 µM (inactive)
41.2 µM (inactive)
> 100 µM (inactive)
> 100 µM (inactive)
0.178 µM (active)

Recorded values, source ChEMBL document CHEMBL1201862.
